- Test system: UACC-62 melanoma
- assayProtocol: NCI tumour cell line growth inhibition, 48 h
Would you mind telling me the reported TGI of each entry?

compound="CCO[C@@H]1CCC(S(=O)c2ccc(C)cc2)=CO1 (stereo partly drawn)" measured="> 100 µM"
compound="COC(=O)C1C2C=CC(C2)C1(C(=O)OC)S(=O)CC12CCC(CC1O)C2(C)C (stereo not drawn)" measured="> 100 µM"

API: the following record is the query input.
// `NNC(=O)CCC(=O)Nc1cc(Cl)c(Cl)cc1Cl` : TGI value = > 100 µM

---

- System: SNB-19 CNS
- assayProtocol: NCI tumour cell line growth inhibition, 48 h
propertyLabel: TGI

I have 5 molecules here; please give me TGI for each one.
1. C=CCOc1ccc(/C(N=Nc2ccccc2)=N/NC(=O)c2ccccc2)cc1OC
2. c1cc(CCN2CCCCC2)ccn1
3. CCN1CN(c2ccccc2)C2(CCN(CCCSc3ccc(F)cc3)CC2)C1=O
4. O=c1c2cc(Br)ccc2nc(-c2ccccc2Cl)n1NCC1(O)OCC(O)C(O)C1O (centres undefined)
5. CN(c1ccc(NC(=O)Nc2ccc(OC(F)(F)F)cc2)cc1)c1ccnc(Nc2cccc(S(N)(=O)=O)c2)n1

> 100 µM
> 100 µM
24.3 µM
> 100 µM
14.3 µM

Please state, for each entry, its recorded TGI.
1. COc1ccc(-c2nnc(SCC(=O)Nc3ccc(/C(C)=N\O)cc3)n2-c2ccccc2)cc1OC
2. CCn1c2ccccc2c2ccc3c(c21)C(=O)c1ccccc1C3=O
3. C/C(=C\c1ccn(-c2ccc(N)c(F)c2)n1)[C@@H]1C[C@@H]2O[C@]2(C)CCC[C@H](C)[C@H](O)[C@@H](C)C(=O)C(C)(C)[C@@H](O)CC(=O)O1
4. O=c1[nH]c(=O)n(COCCO)c2ccc(Br)cc12
5. O=C(O)C(O)Cc1ccccn1 (centres undefined)
6. COc1cc(-c2c(C#N)c(N)c(C#N)c3c2COc2ccccc2-3)cc(OC)c1OC
7. COC(=O)[C@@H](O)[C@]1(C(=O)OC)C2O[C@@H](OC)[C@@H]1CCCCCC[C@H]2O
8. CC(=O)CCC(=O)C(=[N+]=[N-])S(=O)(=O)c1ccccc1

> 100 µM
> 100 µM
> 50 µM
> 100 µM
> 100 µM
> 43.5 µM
> 100 µM
> 100 µM

List reported TGI for each of these molecules:
1. O=C1c2cc3c(cc2CC12Cc1cc4c(cc1C2=O)CCC4)CCC3
2. Cn1ccc2c(c1=O)C(=O)c1nccc3c1c-2nc1ccccc13

> 100 µM
3.03 µM

Record TGI per entry; entries follow.
1. COc1ccn2c(C(C)=O)cc(C(=O)c3ccc4c(c3)Sc3ccccc3N4)c2c1
2. CC(=O)Oc1ccc2c(C)cc(=O)oc2c1
3. O=C1C=C[C@@]23C[C@@H](Nc4c(O)c5c6c(c42)=NCCC=6C=N5)SC3=C1
4. Nc1ccc2nc3ccc(N)cc3[n+](-c3ccccc3)c2c1
5. C/C([O-])=C1\Cc2ccccc2C1=O.C/C([O-])=C1\Cc2ccccc2C1=O.CC[O-].CC[O-].[Ti+4]

1: > 100 µM; 2: > 100 µM; 3: 30.6 µM; 4: > 100 µM; 5: 38.5 µM

Provide reported TGI for each item, in the same order as listed.
1. CC(C)[C@@]12C[C@@H](OC(=O)COC(=O)/C=C/c3ccccc3)[C@@](C)(O1)[C@@H]1CC[C@@H](C)[C@H]1[C@@H]2OC(=O)/C=C/c1ccccc1
2. CN(C)CCNC(=O)c1ccc(C(=O)NCCN(C)C)c2nc3ccccc3cc12
3. CC1=CCC(OC(=O)C(C)(C)CCC(O)(C(=O)OC2(C(C)C)CCC3(C)OC3C2)C(C)C)(C(C)C)CC1 (centres undefined)
4. Cc1ccc2c(c1C)-c1c(ccc(C)c1C)C(=O)C2=O

1. > 100 µM
2. 11.3 µM
3. 5.43 µM
4. 23.8 µM

---

- System: IGROV1 ovarian
- assayProtocol: NCI tumour cell line growth inhibition, 48 h
propertyLabel: TGI

Record excerpt, results attached:
compound=c1ccc(C(c2ccccc2)[P+](c2ccccc2)(c2ccccc2)c2ccccc2)cc1 tgt="IGROV1 ovarian" measured="8.64 µM"
compound="O=C(O)CCC(NC(=O)c1ccc(Nc2cnc3ccc(C(F)(F)F)cc3n2)cc1)C(=O)O (stereo not given)" tgt="IGROV1 ovarian" measured="> 100 µM"

Return reported TGI values for all items listed beneath this line.
1. O=C1Nc2ccccc2C1Cc1ccc([N+](=O)[O-])cc1 (stereo not given)
2. O=c1c(Sc2c(O)c3ccccc3c3ccccc3c2=O)c(O)c2ccccc2c2ccccc12
3. CCOC(=O)C1=C(NNC(=O)Cc2ccccc2)CSC1=Nc1ccccc1
4. CCN(CCNc1ccc(C)c2sc3cc(Cl)ccc3c(=O)c12)CC(C)O (stereo not given)
5. CCCCn1cnnc1NS(=O)(=O)c1cc(C)c(Cl)cc1SCC(=O)O

["> 100 µM", "> 100 µM", "> 100 µM", "2.78 µM", "> 10 µM"]

Hi! Can you tell me TGI for each of these compounds?
1. CN1CCN(c2cc3c(cc2F)c(=O)c(C(=O)O)cn3C2CC2)CC1CC#N (stereo not given)
2. CCN(CC)c1ccc(C2SCC(=O)N2c2ccc(NC(=O)c3ccc(N4C(=O)CSC4c4ccc(N(CC)CC)cc4)cc3)cc2)cc1 (stereo not given)
3. CN(C)CCCNc1ncnc2nc[nH]c12

1. > 100 µM
2. > 100 µM
3. > 100 µM

For every listed record, write down its TGI.
1. COc1ccc(C(=O)/C=C/c2c(C(F)(F)F)nc3sccn23)cc1OC
2. CC(=O)O[C@@H]1[C@H]2[C@@H](OC(=O)c3ccccc3)[C@@H](C)C[C@]2(O)[C@H](OC(C)=O)[C@@]2(C)[C@@H]3CC(C)(C)C(=O)[C@]3(OC(C)=O)C[C@@]12C

["> 100 µM", "> 25 µM"]

Provide each entry's TGI from the list below.
1. COc1ccc(Cc2c(N)[nH]c(=O)n(C)c2=O)cc1
2. CC(=O)NCCSC(=O)c1ccccc1
3. CS/C(=N\C(=S)Nc1ccccc1)Nc1ccccc1
4. CC1=CCC(OC(=O)C(C)(C)CCC(O)(C(=O)OC2(C(C)C)CCC3(C)OC3C2)C(C)C)(C(C)C)CC1 (stereo not given)
5. NC(=NC1CCCCCCC1)c1ccc(N2CCN(c3ccc(C(N)=NC4CCCCCCC4)cc3)CC2)cc1

> 100 µM
> 29.6 µM
97.6 µM
0.272 µM
> 100 µM

---

- Tested on: OVCAR-3 ovarian
- assayProtocol: NCI tumour cell line growth inhibition, 48 h
propertyLabel: TGI

compound="OCC(O)C(OC1OC(CO)C(O)C(O)C1O)c1nn(-c2ccccc2)c2nc3cc(Cl)c(Cl)cc3cc12 (stereo not given)" propertylabel=TGI measured="> 100 µM"
compound=[C-]#[O+].[C-]#[O+].[C-]#[O+].[C-]#[O+].[Ir].[Ir].[O-]c1ccc2ccccc2c1C=Nc1ccc(N=Cc2c([O-])ccc3ccccc23)cc1 propertylabel=TGI measured="> 100 µM"
compound="N=C(N)C(N=Nc1ccccc1)C(N)=O (stereo not given)" propertylabel=TGI measured="> 100 µM"

Hey, quick one: what's TGI for each of these?
1. CC1=C(O)C(=O)C[C@]2(C)[C@H]3CC=C4[C@@H]5CC(C)(C)CC[C@@H]5C(=O)[C@H](O)[C@@]4(C)[C@]3(C)CC[C@@H]12
2. O=c1[nH]c(=O)n(COCCO)c2ccc(Br)cc12

1: > 50 µM; 2: > 100 µM

---

- Tested on: A549 NSCLC
- assayProtocol: NCI tumour cell line growth inhibition, 48 h
propertyLabel: TGI

compound=O=C1NC(=S)NC(=O)C1C(c1ccc([N+](=O)[O-])cc1)C1C(=O)NC(=S)NC1=O propertylabel=TGI measured="> 100 µM"

List the reported TGI of each compound below.
1. Nc1ccc(C2NC(=O)Cc3c2ccc2ccccc32)cc1 (stereo not given)
2. O=C1/C(=C/c2ccc([N+](=O)[O-])o2)Oc2ccc(Br)cc21

1: > 100 µM; 2: 35.3 µM

Here are 6 compounds. What values of TGI were reported for them?
1. CN(C)c1ccc(-c2cc(-c3ccc(Nc4nc(Nc5ccccc5)nc(Nc5ccc(Cl)cc5)n4)cc3)nc(N)n2)cc1
2. COc1cc(C[C@H]2C(=O)OC[C@@H]2Cc2ccc(OC)c(OC)c2)cc(OC)c1
3. CSc1nc(-c2ccc(C)cc2)c(C#N)c(=O)[nH]1
4. CCCc1c(O)c(=O)c2c(OC)cc(OC)c3c4c(OC)cc(OC)c5c(=O)c(O)c(CCC)c(c1c23)c54
5. O=C(CCCCCCSc1nc(-c2ccccc2)cc(-c2ccccc2)n1)NO
6. CN1CCN(c2nc(NCCCCNc3ccnc4cc(Cl)ccc34)c3ccccc3n2)CC1

> 100 µM
> 100 µM
> 100 µM
13.1 µM
10.4 µM
20.5 µM
